system-under-test: T1, cynomolgus monkey B7-H4 (recombinant, BLI) (cynomolgus monkey, UniProt Q7Z7D3 25-259 (human entry))
T1 construct: also called Cynomolgus B7-H4
T1 sequence: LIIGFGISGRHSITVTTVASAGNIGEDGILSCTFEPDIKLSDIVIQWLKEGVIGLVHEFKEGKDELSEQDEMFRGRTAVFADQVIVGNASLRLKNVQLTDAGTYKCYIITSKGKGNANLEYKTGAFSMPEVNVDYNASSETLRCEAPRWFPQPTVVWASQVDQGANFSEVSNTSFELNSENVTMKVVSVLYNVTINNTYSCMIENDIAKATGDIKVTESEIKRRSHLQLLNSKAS
measurement-protocol: BLI, antigen on Protein A tips;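 further: Anti-B7-H4 antibodies assessed for affinity toward the B7-H4 extracellular domain using biolayer interferometry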
Parameter Kd: see the listing below.
Note: unit nM is implicit; provide only the numeric part.

>  <binder>
B7-H4 antibody 20506 (antibody, V domains shown, human IgG1/kappa) VH: QLQLQESGPGLVKPSETLSLTCTASGGSISHGGYYWSWIRQHPGKGLEWIGNIYYSGSTYYNPSLKSRVTMSVDTSKNQFSLKLSSVTAADTAVYYCARESSTISADFDLWGRGTLVTVSS VL: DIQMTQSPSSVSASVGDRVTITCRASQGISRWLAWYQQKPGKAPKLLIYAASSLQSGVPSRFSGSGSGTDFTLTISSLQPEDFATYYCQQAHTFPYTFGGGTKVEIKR

>  <readout-unit>
nM

>  <Kd>
1.48

$$$$

Form field: reported Kd of B7-H4 antibody 20502.1 (antibody, human IgG1, kappa, V domains shown, human IgG1/kappa) VH: QLQLQESGPGLVKPSETLSLTCTVSGGSIKSGSYYWGWIRQPPGKGLEWIGNIYYSGSTYYNPSLKSRVTISVDTSKNQFSLKLSSVTAADTAVYYCAREGSYPNQFDPWGQGILVTVSS VL: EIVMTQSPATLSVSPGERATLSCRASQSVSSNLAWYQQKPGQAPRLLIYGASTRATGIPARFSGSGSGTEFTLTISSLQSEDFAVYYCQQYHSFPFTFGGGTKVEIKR
2.64
